- protocol.notes: qHTS assay for small molecules that induce genotoxicity in human embryonic kidney cells expressing luciferase-tagged ATAD5 - cell viability (AID 651634); further: nearly all actives have a fitted effect of over 25% in size
- cond: HEK293T ATAD5-luc cells viability, CellTiter-Fluor, 15.5 h; series mostly up to 83.3 µM
Records with an inconclusive call do not appear. Active and inactive are the calls of the source. The call rests on the fitted dose curve.
Outcome codes: active, inactive

[
  {
    "compound": "Cc1ccccc1-n1c(CF)nc2ccc(N)cc2c1=O",
    "assigned.category": "inactive"
  },
  {
    "compound": "C=C[C@H]1CN2CC[C@H]1C[C@H]2[C@H](OC(=O)OCC)c1ccnc2ccc(OC)cc12",
    "assigned.category": "inactive"
  },
  {
    "compound": "C[C@]12CC[C@H]3[C@@H](CCC4=C(Cl)C(=O)CC[C@@]43C)[C@@H]1CC[C@@H]2O",
    "assigned.category": "inactive"
  },
  {
    "compound": "C[C@@H](Cc1ccccc1)N(C)C",
    "assigned.category": "inactive"
  },
  {
    "compound": "Oc1cccc[c]1[Hg][Cl]",
    "assigned.category": "active"
  },
  {
    "compound": "C[C@]12C=CC(=O)C=C1CC[C@@H]1[C@@H]2CC[C@]2(C)OC(=O)CC[C@@H]12",
    "assigned.category": "inactive"
  },
  {
    "compound": "C[C@]12CC[C@H]3[C@@H](CCC4=C(O)C(=O)CC[C@@H]43)[C@@H]1CC[C@@H]2OC(=O)CCC1CCCC1",
    "assigned.category": "inactive"
  },
  {
    "compound": "CNC1(c2ccccc2Cl)CCCCC1=O (stereo not drawn)",
    "assigned.category": "inactive"
  },
  {
    "compound": "NCC[C@H](O)C(=O)N[C@@H]1C[C@H](N)[C@@H](O[C@H]2O[C@H](CN)[C@@H](O)[C@H](O)[C@H]2N)[C@H](O[C@@H]2O[C@H](CO)[C@@H](O)[C@H]2O)[C@H]1O",
    "assigned.category": "inactive"
  },
  {
    "compound": "O=C(Nc1ccccc1-c1ccc(Cl)cc1)c1cccnc1Cl",
    "assigned.category": "inactive"
  },
  {
    "compound": "O=[N+]([O-])c1c(Cl)c(Cl)cc(Cl)c1Cl",
    "assigned.category": "inactive"
  },
  {
    "compound": "O=C1C[C@@H]2OCC=C3CN4CC[C@]56c7ccccc7N1[C@H]5[C@H]2[C@H]3C[C@H]46 (tested in a mixture with another compound)",
    "assigned.category": "inactive"
  },
  {
    "compound": "C/C=C(\\CC)C(=O)NC(N)=O",
    "assigned.category": "inactive"
  },
  {
    "compound": "Clc1ccc2c(c1)C(c1ccccc1)=NCc1nncn1-2",
    "assigned.category": "inactive"
  },
  {
    "compound": "CNc1ccc(C(=O)CC(O)CCC(C)C2OC(=O)CC(O)CC(=O)CC(O)CC(O)CC(O)CC(O)CC3(O)CC(O)C(C(=O)OC)C(CC(O[C@@H]4O[C@H](C)[C@@H](O)[C@H](N)[C@@H]4O)/C=C/C=C/C=C/C=C/C=C/C=C/C=C/C2C)O3)cc1 (stereo partly drawn)",
    "assigned.category": "inactive"
  },
  {
    "compound": "CCCCCc1cc(O)c2c(c1)OC(C)(C)c1ccc(C)cc1-2",
    "assigned.category": "active"
  },
  {
    "compound": "CCCCNC(C)(C)[P+](=O)O",
    "assigned.category": "inactive"
  },
  {
    "compound": "C[C@H]1CC[C@]2(NC1)O[C@H]1C[C@H]3[C@@H]4CC[C@H]5C[C@@H](O)CC[C@]5(C)[C@H]4CC[C@]3(C)[C@H]1[C@@H]2C",
    "assigned.category": "inactive"
  }
]
